# pIC50 listing for each entry below
# target: Eukaryotic system (eukaryotic cytoplasmic ribosome)
# experiment.description: Eukaryotic translation inhibition, coupled transcription/translation, luciferase detection
# Type: biochemical
# experimental.context: Table 3; read-out: Translation Inhibition IC50^Euk
# Text: Prokaryotic and eukaryotic translation inhibition was quantified in coupled transcription/translation assays by using active luciferase detection, performed as described hereinabove. […] In all biological experiments conducted, all tested aminoglycosides were in their sulfate salt forms. […] Prokaryotic and eukaryotic translation inhibition was quantified in coupled transcription/translation assays as previously described. […]
Remember, pIC50 is on a log scale: it is -log10 of the molar concentration.

As a guide, the following entries are already answered.
[
  {
    "compound": "C[C@@H](O)C1O[C@H](O[C@@H]2C(N)C[C@@H](N)C(O)[C@H]2O[C@@H]2O[C@H]([C@@H](C)N)[C@H](O)C2O)C(N)[C@@H](O)[C@@H]1O (stereo partly drawn)",
    "pIC50": 5.10
  },
  {
    "compound": "CN[C@H]1[C@@H](O)C(OC2[C@H](N)CC(N)[C@@H](O[C@H]3OC(C(C)O)[C@@H](O)[C@H](O)C3N)[C@@H]2O)OCC1(C)O (stereo partly drawn) [G418, reference compound]",
    "pIC50": 5.70
  }
]

Let us examine a further case.
IN: Query pIC50 on Eukaryotic system (eukaryotic cytoplasmic ribosome) for C[C@@H](N)[C@H]1O[C@@H](OC2C(O)[C@H](N)CC(N)[C@H]2O[C@H]2OC(CO)[C@@H](O)C(O)C2N)C(O)C1O (stereo partly drawn)
OUT: 4.55

* * *

# target: Prokaryotic system (prokaryotic ribosome)
# experiment.description: Prokaryotic translation inhibition, coupled transcription/translation, luciferase detection
# Format: biochemical
# experimental.context: Table 2; read-out: Translation Inhibition Prokaryotic system IC50
# pIC50 listing for each entry below
Remember, pIC50 is on a log scale: it is -log10 of the molar concentration.

As a guide, the following entries are already answered.
[
  {
    "molecule": "C[C@@H](O)C1O[C@H](O[C@@H]2C(N)C[C@@H](NC(=O)[C@@H](O)CCN)[C@@H](O)C2O[C@@H]2O[C@H](CN)[C@H](O)C2O)[C@@H](N)C(O)[C@@H]1O (stereo partly shown) [NB84, reference compound]",
    "pIC50": 6.01
  },
  {
    "molecule": "CN[C@H]1[C@@H](O)C(OC2[C@H](N)CC(N)[C@@H](O[C@H]3OC(C(C)O)[C@@H](O)[C@H](O)C3N)[C@@H]2O)OCC1(C)O (stereo partly shown) [G418, reference compound]",
    "pIC50": 8.05
  },
  {
    "molecule": "C[C@@H](N)[C@H]1O[C@@H](O[C@@H]2[C@@H](O)[C@H](NC(=O)[C@@H](O)CCN)C[C@H](N)[C@H]2O[C@H]2O[C@H]([C@@H](C)O)[C@@H](O)[C@H](O)[C@H]2N)[C@H](O)[C@@H]1O",
    "pIC50": 5.76
  },
  {
    "molecule": "C[C@@H](O)C1O[C@H](O[C@@H]2C(N)C[C@@H](N)[C@@H](O)C2O[C@@H]2O[C@H](CN)[C@H](O)C2O)[C@@H](N)C(O)[C@@H]1O (stereo partly shown) [NB74, reference compound]",
    "pIC50": 5.95
  },
  {
    "molecule": "C[C@@H](O)C1O[C@H](O[C@@H]2C(N)C[C@@H](N)C(O)[C@H]2O[C@@H]2O[C@H]([C@@H](C)N)[C@H](O)C2O)C(N)[C@@H](O)[C@@H]1O (stereo partly shown)",
    "pIC50": 5.73
  }
]

IN: Item under review: C[C@H](N)[C@H]1O[C@@H](OC2C(O)[C@H](N)CC(N)[C@H]2O[C@H]2OC([C@@H](C)O)[C@@H](O)C(O)C2N)C(O)C1O (stereo partly shown) . Reported pIC50?
OUT: 5.96

IN: Item under review: CC(N)C1OC(OC2C(O)C(NC(=O)C(O)CCN)CC(N)C2OC2OC(C(C)O)C(O)C(O)C2N)C(O)C1O (stereo not shown) . Reported pIC50?
OUT: 5.76
